The reported measurements were obtained from patent US20200390729A1.

assay: Ocular distribution of CDO in rabbits, single dose topical ocular vs. oral; format: in vivo, New Zealand White rabbit; conditions: New Zealand White, retina/choroid; rabbit, Oral 25 mg/Kg = 45 mg, 1 h; read-out: CDO μg/g tissue Retina/Choroid
Attribute Measured: concentration at 1 h (µg/g)

compound="O=S(=O)(O)c1cc(O)ccc1O [CDO, Calcium dobesilate monohydrate]" attribute_measured="concentration at 1 h" reported_value=0.95

====

assay: Ocular distribution of etamsylate following topical ocular single dose in rats; assay type: in vivo, Sprague Dawley (SD) rat; details: Sprague-Dawley, rat, optic nerve, 0.126 mg, read-out: CDO μg/g tissue Optic nerve
Attribute Measured: concentration at 3 h (µg/g)

compound="O=S(=O)(O)c1cc(O)ccc1O [CDO, Calcium dobesilate monohydrate]" unit_of_measure=µg/g reported_value=2.32

====

assay: Ocular distribution of CDO in rats, single dose topical ocular vs. oral; assay type: in vivo, Sprague Dawley (SD) rat; settings: Sprague Dawley, retina; rat, topical eye 100 mg/ml (eye drop of 10 μl) = 1 mg, 1 h; read-out: CDO concentrations Retina
Attribute Measured: concentration at 1 h

compound="O=S(=O)(O)c1cc(O)ccc1O [CDO, Calcium dobesilate monohydrate]" reported_value="640 ng/g"

====

assay: Ocular distribution of CDO in rats, single dose topical ocular vs. oral; format: in vivo, Sprague Dawley (SD) rat; conditions: Sprague Dawley, plasma; rat, oral 200 mg/Kg = 40 mg, 1 h; read-out: CDO concentrations Plasma
Attribute Measured: concentration at 1 h

compound="O=S(=O)(O)c1cc(O)ccc1O [CDO, Calcium dobesilate monohydrate]" reported_value="9040 ng/g"

====

assay: Ocular distribution of CDO in rabbits, single dose topical ocular vs. oral; type: in vivo, New Zealand White rabbit; conditions: New Zealand White, optic nerve; rabbit, Topical eye administration 100 mg/ml = 3.3 mg, 1 h; read-out: CDO μg/g tissue Optic nerve
Attribute Measured: concentration at 1 h (µg/g)

compound="O=S(=O)(O)c1cc(O)ccc1O [CDO, Calcium dobesilate monohydrate]" reported_value=22.9

====

test: Ocular distribution of CDO in rats, single dose topical ocular vs. oral; assay type: in vivo, Sprague Dawley (SD) rat; details: Sprague Dawley, sclera; rat, topical eye 10 mg/ml (eye drop of 10 μl) = 0.1 mg, 0.25 h; read-out: CDO concentrations Sclera
Attribute Measured: concentration at 0.25 h

compound="O=S(=O)(O)c1cc(O)ccc1O [CDO, Calcium dobesilate monohydrate]" attribute_measured="concentration at 0.25 h" reported_value="170 ng/g"

====

test: Ocular distribution of CDO in rats, single dose topical ocular vs. oral; assay type: in vivo, Sprague Dawley (SD) rat; conditions: Sprague Dawley, vitreous humour/lens; rat, topical eye 10 mg/ml (eye drop of 10 μl) = 0.1 mg, 3 h; read-out: CDO concentrations Vitreous humour/lens
Attribute Measured: concentration at 3 h (ng/g)

compound="O=S(=O)(O)c1cc(O)ccc1O [CDO, Calcium dobesilate monohydrate]" attribute_measured="concentration at 3 h" unit_of_measure=ng/g reported_value=190

====

assay: Ocular distribution of CDO in rats, single dose topical ocular vs. oral; type: in vivo, Sprague Dawley (SD) rat; conditions: Sprague-Dawley, optic nerve; rat, topical eye 100 mg/ml (eye drop of 10 μl) = 1 mg, 1 h; read-out: CDO concentrations Optic nerve
Attribute Measured: concentration at 1 h (ng/g)

compound="O=S(=O)(O)c1cc(O)ccc1O [CDO, Calcium dobesilate monohydrate]" attribute_measured="concentration at 1 h" reported_value=2910

====

Test: Ocular distribution of CDO in rats, single dose topical ocular vs. oral
Format: in vivo, Sprague Dawley (SD) rat
Settings: Sprague Dawley, cornea; rat, topical eye 10 mg/ml (eye drop of 10 μl) = 0.1 mg, 1 h; read-out: CDO concentrations Cornea
Experimental: In Sprague Dawley (SD) rat, weighing approximately 200 g, CDO was administered by topical ocular instillation (10 μl/eye) at 10 mg/ml (composition 2 of Example 1), at 100 mg/ml (composition 5 of Example 1) or by oral gavage at 50 mg/kg, at 200 mg/kg or at 750 mg/kg in aqueous solution (from compositions 1, 3 and 4, respectively, of Example 1). […] Bioanalysis of CDO was performed depending on the type of matrix. […] After centrifugation, samples were analyzed by UPLC-MS/MS. […]
Attribute Measured: concentration at 1 h (ng/g)

molecule="O=S(=O)(O)c1cc(O)ccc1O [CDO, Calcium dobesilate monohydrate]" reported_value=1010

====

experiment: Ocular distribution of CDO in rats, single dose topical ocular vs. oral; format: in vivo, Sprague Dawley (SD) rat; details: Sprague Dawley, plasma; rat, oral 750 mg/Kg = 150 mg, 0.25 h; read-out: CDO concentrations Plasma
Attribute Measured: concentration at 0.25 h (ng/g)

compound="O=S(=O)(O)c1cc(O)ccc1O [CDO, Calcium dobesilate monohydrate]" attribute_measured="concentration at 0.25 h" reported_value=12600

====

assay: Ocular distribution of CDO in rabbits, single dose topical ocular vs. oral; assay type: in vivo, New Zealand White rabbit; conditions: New Zealand White, optic nerve; rabbit, Topical eye administration 100 mg/ml = 3.3 mg, 6 h; read-out: CDO μg/g tissue Optic nerve
Attribute Measured: concentration at 6 h (µg/g)

molecule="O=S(=O)(O)c1cc(O)ccc1O [CDO, Calcium dobesilate monohydrate]" attribute_measured="concentration at 6 h" reported_value=1.92

====

assay: Ocular distribution of CDO in rats, single dose topical ocular vs. oral; type: in vivo, Sprague Dawley (SD) rat; conditions: Sprague Dawley, retina; rat, topical eye 100 mg/ml (eye drop of 10 μl) = 1 mg, 6 h; read-out: CDO concentrations Retina
Attribute Measured: concentration at 6 h (ng/g)

compound="O=S(=O)(O)c1cc(O)ccc1O [CDO, Calcium dobesilate monohydrate]" attribute_measured="concentration at 6 h" reported_value=130
